Hi there, I'd appreciate the recorded inhibition at 10 min, 10 µM for every entry that follows.
target: CYP2C9 (Homo sapiens, UniProt P11712); assay: Inhibition of human microsomal CYP2C9 at 10 uM after 10 mins by single quad LC/MS analysis; type: ADME; settings: microsomes
Sequence (P11712 whole entry): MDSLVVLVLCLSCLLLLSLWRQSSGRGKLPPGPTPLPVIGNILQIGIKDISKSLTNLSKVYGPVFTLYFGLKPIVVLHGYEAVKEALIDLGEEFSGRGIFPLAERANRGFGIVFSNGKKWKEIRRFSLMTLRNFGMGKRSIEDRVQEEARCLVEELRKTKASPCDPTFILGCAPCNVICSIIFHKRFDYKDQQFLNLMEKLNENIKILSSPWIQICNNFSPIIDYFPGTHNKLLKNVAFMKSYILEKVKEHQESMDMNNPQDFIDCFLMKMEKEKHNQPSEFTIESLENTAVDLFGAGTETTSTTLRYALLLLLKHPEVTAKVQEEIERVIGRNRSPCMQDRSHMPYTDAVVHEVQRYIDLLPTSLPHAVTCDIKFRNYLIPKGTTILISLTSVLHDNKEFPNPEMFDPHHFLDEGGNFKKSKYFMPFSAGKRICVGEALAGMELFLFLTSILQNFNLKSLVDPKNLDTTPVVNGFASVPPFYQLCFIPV
Give bare numbers, in %.

1) CCCc1oc(CCC(=O)O)c(C(=O)O)c1C = 0
2) CCCc1oc(CCC(=O)O)cc1C = 9

Quick batch: inhibition at 10 min, 10 µM for everything below.
1. CCCc1oc(CCC(C)=O)c(C(C)=O)c1C
2. COC(=O)CCc1oc2c(c1C(=O)OC)CCCC2
3. CCCCCc1oc(CCC(=O)OC)c(C(=O)OC)c1C

1: 0; 2: 2; 3: 27

====

assay: Drug metabolism in human microsomes at 4 uM after 30 mins by single quad LC/MS analysis; assay type: ADME, Microsome; conditions: read-out: Drug metabolism
Response field label takes condition met when metabolised at 0.5 h, 4 µM is strictly below 5% and condition not met in all other cases.

1. CCCc1oc(CCC(=O)O)cc1C = condition met
2. CCCc1oc(CCC)c(C(=O)O)c1C = condition not met

Strictly below 5%: is that where metabolised at 0.5 h, 4 µM of `CCCCCc1oc(CCC(=O)OC)c(C(=O)OC)c1C` sits?
condition not met

Strictly below 5%: is that where metabolised at 0.5 h, 4 µM of `CCCc1oc(CCC(=O)O)c(C(=O)O)c1CCC` sits?
condition met

// provenance: ChEMBL document CHEMBL4004837
